This collection of values is drawn from the Human Domainome abundance scans (Beltran et al. 2025).

B1: Chromodomain-helicase-DNA-binding protein 4, residues 365 to 417; numbered along this chain, Q14839 (parent)
chain: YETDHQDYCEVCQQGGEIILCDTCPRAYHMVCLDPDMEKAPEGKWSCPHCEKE

- Variants of: B1
- TEST DETAILS: abundance fitness (aPCA) (normalised: wild type 0, dead -1); higher = more abundant; growth selection in yeast, the domain comes from the species named
- CONDITION DESCRIPTION: Homo sapiens
abundance fitness for assorted variants

- MUTATION ID: "Q13N"
  abundance fitness: 0.255
- MUTATION ID: "Q6A"
  abundance fitness: -0.269
- MUTATION ID: "D4H"
  abundance fitness: 0.304
- MUTATION ID: "P25A"
  abundance fitness: -0.243
- MUTATION ID: "E17G"
  abundance fitness: -0.171
- MUTATION ID: "P41A"
  abundance fitness: 0.117
- MUTATION ID: "P41N"
  abundance fitness: 0.435
- MUTATION ID: "V11W"
  abundance fitness: -0.019
- MUTATION ID: "W45F"
  abundance fitness: -0.159
- MUTATION ID: "E2A"
  abundance fitness: -0.143
- MUTATION ID: "M30R"
  abundance fitness: -0.266
- MUTATION ID: "E53Y"
  abundance fitness: -0.323
- MUTATION ID: "P35K"
  abundance fitness: -0.374
- MUTATION ID: "E42H"
  abundance fitness: -0.394
- MUTATION ID: "M30I"
  abundance fitness: -0.02
- MUTATION ID: "M37E"
  abundance fitness: -0.392
- MUTATION ID: "D4S"
  abundance fitness: -0.127
- MUTATION ID: "I18D"
  abundance fitness: -0.058
- MUTATION ID: "I19S"
  abundance fitness: -0.143
- MUTATION ID: "C24F"
  abundance fitness: -0.882
- MUTATION ID: "E2M"
  abundance fitness: 0.621
- MUTATION ID: "H29Y"
  abundance fitness: -0.841
- MUTATION ID: "C32W"
  abundance fitness: -0.936
- MUTATION ID: "G43M"
  abundance fitness: -0.151
- MUTATION ID: "E42I"
  abundance fitness: -0.261
- MUTATION ID: "W45Y"
  abundance fitness: -0.207
- MUTATION ID: "A27S"
  abundance fitness: -0.088
- MUTATION ID: "A27D"
  abundance fitness: -0.545
- MUTATION ID: "H5D"
  abundance fitness: -0.801
- MUTATION ID: "Q14E"
  abundance fitness: 0.223
- MUTATION ID: "C21Q"
  abundance fitness: -0.468
- MUTATION ID: "G43H"
  abundance fitness: -0.505
- MUTATION ID: "I18T"
  abundance fitness: 0.221
- MUTATION ID: "V11H"
  abundance fitness: 0.155
- MUTATION ID: "E38S"
  abundance fitness: -0.266
- MUTATION ID: "Y1L"
  abundance fitness: -0.316
- MUTATION ID: "D7P"
  abundance fitness: -0.29
- MUTATION ID: "P48F"
  abundance fitness: -0.165
- MUTATION ID: "I18V"
  abundance fitness: -0.161
- MUTATION ID: "Q6Y"
  abundance fitness: -0.243
- MUTATION ID: "K52R"
  abundance fitness: -0.106
- MUTATION ID: "K44P"
  abundance fitness: 0.062
- MUTATION ID: "Q14I"
  abundance fitness: -0.084
- MUTATION ID: "Y1M"
  abundance fitness: 0.64
- MUTATION ID: "Y28N"
  abundance fitness: -0.403
- MUTATION ID: "L33N"
  abundance fitness: -0.547
